# Measured Target: recombinant human IL-17A/F (produced in CHO cells, R&D Systems 5837-IL) (human, UniProt Q16552 24-155; Q96PD4 31-163, limits assumed)
# Sequence (Q16552 24-155 limits assumed, chain 1 of 2): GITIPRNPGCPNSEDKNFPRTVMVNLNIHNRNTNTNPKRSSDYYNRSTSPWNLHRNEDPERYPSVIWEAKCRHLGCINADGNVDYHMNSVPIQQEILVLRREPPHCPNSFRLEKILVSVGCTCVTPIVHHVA
# Sequence (Q96PD4 31-163 limits assumed, chain 2 of 2): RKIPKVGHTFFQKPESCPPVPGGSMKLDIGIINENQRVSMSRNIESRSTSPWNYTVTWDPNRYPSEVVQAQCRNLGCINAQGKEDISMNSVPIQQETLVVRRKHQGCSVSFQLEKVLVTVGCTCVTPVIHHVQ
# Protocol Description: cell-based or functional assay
Value Kind: Neutralization potency, ranking from 1 = the best to 4 (HEK-Blue IL-17 reporter cells) (rank)

[
  {
    "Binder": "Re42F08 (VHH, Class B, first generation) VHH: QVQLVESGGGLVKAGGSLRLSCVVSGHTSEISAMGWYRQAPGKQRELVALITSRSGDTHYSDSVKGRFSISRDNAKNTMYLQMNSLNPDDTAVYYCVHNEPGHLYMAQGTQVTVSS",
    "Display Unit": "rank",
    "Assay Result": 3
  },
  {
    "Binder": "Bm42A09 (VHH, Class B, second generation) VHH: QVQLVESGGGLVRTGGSLRLSCSVSGDISSQSAMGWYRQVPGRQRELVAMIHTTKGDTYYADSVKGRFTISRINANNTIYLQMNNLKPEDTAIYYCTHNEPGDLYMGQGTLVTVSS",
    "Display Unit": "rank",
    "Assay Result": 1
  }
]

A. Bm44G07 (VHH, Class B, second generation) VHH: QVQLVQSGGGLVQTGGSLRLSCSVSGDISSQSAMGWYRQVPGRQRELVAMIHTTKGDTYYADSVKDRFTISRINANNTIHLQMNNLKPEDTAIYYCTHNEPGDLYMGQGTQVTVSS
B. Bm44C09 (VHH, Class A, second generation) VHH: QVQLVESGGGLVQAGGSLRLSCAASGLAVSSYAMGWFRQAPGKEREFVAAISWISGGTKYADSVKDRFTMSRDNAKKQVYLEMNSLKPEDTAVYYCNDMPYGLDTRMDDYKYWGQGIQVTVSS
Looking only at measured Neutralization potency, ranking from 1 = the best to 4 (HEK-Blue IL-17 reporter cells), which entry is lower, A or B ? Mark your selection by writing its label.
B
